System: HS 578T breast
Experiment: NCI tumour cell line growth inhibition, 48 h
measure.name: TGI (µM)

[
  {
    "compound": "COC(=O)[C@]1(C)CCCC2(C)C3=C(CCC21)CC1(CC3)SCCS1 (some centres undefined)",
    "operator.symbol": ">",
    "test.result": 10
  },
  {
    "compound": "Nc1ccn([C@@H]2S[C@H](CO)[C@@H](O)[C@@H]2F)c(=O)n1",
    "operator.symbol": ">",
    "test.result": 100
  },
  {
    "compound": "Fc1ccc(C(OCCN2CC3CC2CN3)c2ccc(F)cc2)cc1 (centres undefined)",
    "operator.symbol": ">",
    "test.result": 100
  },
  {
    "compound": "O=C1C2C(C(=O)N1CC[Se][Se]CCN1C(=O)C3C(C1=O)[C@H]1C=C[C@@H]3C1)[C@H]1C=C[C@@H]2C1 (some centres undefined)",
    "operator.symbol": "=",
    "test.result": 1.16
  },
  {
    "compound": "C=CC[PH+](c1ccccc1)c1ccccc1.C=CC[PH+](c1ccccc1)c1ccccc1.[Pt+2].[S-]c1ncccn1.[S-]c1ncccn1",
    "operator.symbol": ">",
    "test.result": 100
  },
  {
    "compound": "Nc1c(C(=O)Nc2ccccn2)sc2nc3c(cc12)CCCCCC3",
    "operator.symbol": "=",
    "test.result": 12.4
  },
  {
    "compound": "CCN(CC)CCS(=O)(=O)CCNc1ccnc2cc(Cl)ccc12",
    "operator.symbol": ">",
    "test.result": 100
  },
  {
    "compound": "O=C1CC(=O)NC(=NN2C(=O)/C(=C/c3ccc(Cl)cc3)N=C2c2ccccc2)N1",
    "operator.symbol": "=",
    "test.result": 30.6
  },
  {
    "compound": "CCCCOCCOCCOC1=C(Cl)C(=O)c2c(O)ccc(O)c2C1=O",
    "operator.symbol": "=",
    "test.result": 5.86
  }
]

###

# TGI listing for each entry below
System: LOX IMVI melanoma
Test: NCI tumour cell line growth inhibition, 48 h
measure.name: TGI (µM)

[
  {
    "molecule": "O=S(=O)(NCCCNc1nccc(-c2c(-c3cccc(F)c3)nc3occn23)n1)c1cccc2ccccc12",
    "target.system": "LOX IMVI melanoma",
    "operator.symbol": ">",
    "test.result": 100
  },
  {
    "molecule": "CCN(CC)CCCNc1c2ccc(Cl)cc2nc2ccc(OC)cc12",
    "target.system": "LOX IMVI melanoma",
    "operator.symbol": "=",
    "test.result": 1.93
  },
  {
    "molecule": "O=C(NN1C(=O)C(Cl)C1c1c(O)ccc2ccccc12)c1ccccc1O (stereo not given)",
    "target.system": "LOX IMVI melanoma",
    "operator.symbol": ">",
    "test.result": 100
  },
  {
    "molecule": "CC1CCN(c2cc(-c3cc4ccccc4o3)oc(=O)c2C#N)CC1",
    "target.system": "LOX IMVI melanoma",
    "operator.symbol": ">",
    "test.result": 100
  },
  {
    "molecule": "CCCCOc1ccc(S(=O)(=O)/N=C(\\N)Nc2ccc(Cl)cc2)cc1",
    "target.system": "LOX IMVI melanoma",
    "operator.symbol": "=",
    "test.result": 32.8
  },
  {
    "molecule": "CCN(CCNc1ccc(C)c2sc3cc(Cl)ccc3c(=O)c12)CC(C)(C)O",
    "target.system": "LOX IMVI melanoma",
    "operator.symbol": "=",
    "test.result": 10.3
  },
  {
    "molecule": "C=CCCCCCCCCC(=O)ON(Cc1ccc(O)c(OC)c1)C(=O)C(F)(F)F",
    "target.system": "LOX IMVI melanoma",
    "operator.symbol": ">",
    "test.result": 100
  },
  {
    "molecule": "Cc1ccc(NC(=O)c2ccc(NC3=C(Cl)C(=O)N(Cc4ccccc4)C3=O)cc2)cc1Cl",
    "target.system": "LOX IMVI melanoma",
    "operator.symbol": "=",
    "test.result": 14
  },
  {
    "molecule": "Cc1cc(-c2ccco2)cc(C)c1/C=C/c1cncc(-c2nn[nH]n2)c1",
    "target.system": "LOX IMVI melanoma",
    "operator.symbol": ">",
    "test.result": 25
  },
  {
    "molecule": "CC(C)c1cc(C(C)C)c(Cl)c(Cl)c1O (tested in a mixture with another compound)",
    "target.system": "LOX IMVI melanoma",
    "operator.symbol": ">",
    "test.result": 100
  }
]
